# PROTOCOL_DETAILS: Substrate specificities of KAZ mutants (ZZ-fused, crude enzyme), 6h-f-CTZ
# Assay type: biochemical
# EXPERIMENTAL_SETUP: 1 μg substrate, integrated for 60 seconds
ASSAY_READOUT: Relative Luminescence Activity 6h-f-CTZ Int.
I'd appreciate a reply containing only the number, no unit.

Study these solved cases before continuing.
KAZ-A54I-Y138I: KAZ mutant with two amino acid substitutions A54I and Y138I, SEQ ID NO: 14 (protein) FTLADFVGDWQQTAGYNQDQVLEQGGLSSLFQALGVSVTPIQKVVLSGENGLKIDIHVIIPYEGLSGFQMGLIEMIFKVVYPVDDHHFKIILHYGTLVIDGVTPNMIDYFGRPYPGIAVFDGKQITVTGTLWNGNKIIDERLINPDGSLLFRVTINGVTGWRLCENILA	5.7
KAZ-Y138I: KAZ with single amino acid substitution Y138I, SEQ ID NO: 8 (protein) FTLADFVGDWQQTAGYNQDQVLEQGGLSSLFQALGVSVTPIQKVVLSGENGLKADIHVIIPYEGLSGFQMGLIEMIFKVVYPVDDHHFKIILHYGTLVIDGVTPNMIDYFGRPYPGIAVFDGKQITVTGTLWNGNKIIDERLINPDGSLLFRVTINGVTGWRLCENILA	0.8

Kindly review the next molecule as well.
Field request: Relative Luminescence Activity 6h-f-CTZ Int. | item: KAZ-V44I: KAZ with single amino acid substitution V44I, SEQ ID NO: 4 (protein) FTLADFVGDWQQTAGYNQDQVLEQGGLSSLFQALGVSVTPIQKIVLSGENGLKADIHVIIPYEGLSGFQMGLIEMIFKVVYPVDDHHFKIILHYGTLVIDGVTPNMIDYFGRPYPGIAVFDGKQITVTGTLWNGNKIYDERLINPDGSLLFRVTINGVTGWRLCENILA
0.7
